switch fluorescence ratio: recorded values
System: ATP;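 note: ATP exposure 15 min at 22 °C before imaging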
runDescription: switch fluorescence ratio, 500 uM ATP over buffer (Cy3 cluster intensity, sum of 5 cycles each) (fold (ratio)); higher = stronger signal-on switching upon ATP binding; sequences stand for … in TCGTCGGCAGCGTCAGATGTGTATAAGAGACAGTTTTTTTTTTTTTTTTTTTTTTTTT…TC
experimentalContext: aptamer strand: ATP DNA aptamer (quencher-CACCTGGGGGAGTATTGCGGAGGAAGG + anchor), 100 nM annealed; ATP concentration: 500 uM
No unit in the answer, only the number.

Use these answered entries as a reference point.
{"columns": ["sequenceContent", "studyTarget", "endpointName", "observedValue"],
 "data": [
  ["AGGCAGTGGG", "ATP", "switch fluorescence ratio", 0.998],
  ["TATAAATTGG", "ATP", "switch fluorescence ratio", 1],
  ["GTTTTTAGAA", "ATP", "switch fluorescence ratio", 0.994],
  ["AGATGGGAAT", "ATP", "switch fluorescence ratio", 1.04],
  ["TTTGATACAG", "ATP", "switch fluorescence ratio", 1.01]
]}

Recorded switch fluorescence ratio (sequence CTTAGTAGTA ): 0.992

Recorded switch fluorescence ratio (sequence TTATTTTCAT ): 1

Recorded switch fluorescence ratio (sequence ATACTTGATT ): 0.994

Recorded switch fluorescence ratio (sequence TTCGGTCACC ): 1.01
